Ref: ChEMBL document CHEMBL2440076

- Test system: HT-29
- experiment summary: Growth inhibition of human HT-29 cells after 48 hrs by sulforhodamine B assay
- Format: functional
- condition notes: HT-29, 48 h, read-out: LC50 (the source's name)
# key: entry, value: CC50
A number alone suffices; assume µM.

1. COc1cc(-c2nn(-c3cccc(NC(=O)Nc4ccc(Cl)c(C(F)(F)F)c4)c3)cc2-c2ccncc2)ccc1Cl : 21.5

In: Requested field: CC50. Item: COc1cc(-c2nn(-c3cccc(NC(=O)Nc4cccc(C(F)(F)F)c4)c3)cc2-c2ccncc2)ccc1Cl
Out: 4.67

----------
# key: entry, value: growth at 0.003 µM
- Test system: SK-MEL-2
- experiment summary: Growth inhibition of human SK-MEL-2 cells assessed as cell growth at 3X10'-9 M after 48 hrs by sulforhodamine B assay
- Format: functional
- condition notes: SK-MEL-2, 48 h, read-out: Activity
A number alone suffices; assume %.

Example results:
1) O=C(Nc1cccc(-n2cc(-c3ccncc3)c(-c3ccc(Cl)c(O)c3)n2)c1)Nc1ccc(Cl)c(C(F)(F)F)c1 : 113
2) O=C(Nc1cccc(-n2cc(-c3ccncc3)c(-c3ccc(Cl)c(O)c3)n2)c1)Nc1ccc(Cl)c(Cl)c1 : 98
3) O=C(Nc1cccc(-n2cc(-c3ccncc3)c(-c3ccc(Cl)c(O)c3)n2)c1)Nc1cccc(C(F)(F)F)c1 : 93

Below: the item to evaluate.
In: Requested field: growth at 0.003 µM. Item: COc1cc(-c2nn(-c3cccc(NC(=O)c4ccc(Cl)c(C(F)(F)F)c4)c3)cc2-c2ccncc2)ccc1Cl
Out: 92
